# credit: patent US11596598B2

Test: Blood-brain barrier permeability in rats after nasal administration (chlorogenic acid content in brain tissue)
Assay type: in vivo
Conditions: SD, rat, other: nasal administration, 60 min after nasal administration, 20 mg/kg chlorogenic acid
Procedure: 150 SD rats, half male and half […], weighing 180-220 g. SD rats were randomly divided into 5 groups, 30 rats for each group, and each test drug was administrated nasally at a dose of 20 mg/kg chlorogenic acid. The tissue samples were collected at 10 min, 30 min, 60 min, 90 min, 120 min, and 150 min after administration. […] 20 μL of the brain tissue test solution was accurately measured, and injected into the liquid chromatograph, to record the chromatogram. […]
measurement.type: concentration at 60 min (ng/g)
Return type: number; implicit unit ng/g.

*Q* Report concentration at 60 min for "O=C(/C=C/c1ccc(O)c(O)c1)O[C@@H]1C[C@](O)(C(=O)O)C[C@@H](O)[C@H]1O" please.
*A* 860
